Source: PubChem BioAssay (NCI)

Some molecules, each annotated with its measured growth.
System: SF-539 CNS
Assay: NCI-60 one-dose screen, 48 h (100 = growth as untreated, 0 = no growth, -100 = all killed)
Details: 10 µM unless noted
About 83,000 compounds went through this panel and 20% of them were active in at least one assay; those are over-represented in the sample as a whole.
measurement.kind: growth (%)

>>> recorded_value("Cc1ccc([C@H]2C(C(=O)c3ccc(Cl)cc3)C3(N[C@@H]2c2ccccc2)C(=O)Nc2ccc(Br)cc23)cc1 (stereo partly drawn)")
79.7
>>> recorded_value("Cc1ccc(S(=O)(=O)c2nc(S(=O)(=O)c3ccc(C)cc3)c(Cl)s2)cc1")
-62
>>> recorded_value("O=C(c1ccccc1)c1ccc2nc(-c3ccc(F)cc3)[nH]c2c1")
50.6
